# assay_overview: Plasma clearance in Sprague-Dawley rat at 1 mg/kg, iv
# Type: ADME, organism-based
# Design: dose 1 mg/kg, route intravenous
value_kind: clearance (mL/min/kg)

I. NC(=O)c1ccc2c(c1)OCCc1cc(-c3ncnn3C3CCC3)sc1-2
II. CC(C)Cn1ncnc1-c1cc2c(s1)-c1ccc(C(N)=O)cc1OCC2
III. CC(C)n1ncnc1-c1cc2c(s1)-c1ccc(C(N)=O)cc1OCC2
Q: Sort entries by clearance from minimum to maximum value. API: response body holds the labels in the requested order.
A: III, I, II
(III: 13 mL/min/kg, I: 61 mL/min/kg, II: 112 mL/min/kg)

P. CC(C)(O)Cn1ncnc1-c1cc2c(s1)-c1ccc(C(N)=O)cc1OCC2
Q. NC(=O)c1ccc2c(c1)OCCc1cc(-c3ncnn3-c3ccc(F)cc3F)sc1-2
Q: Looking at P and Q , which one comes out lower in clearance terms? Selection: enter the item's label.
A: Q

###

# assayed_system: Phosphatidylinositol 4,5-bisphosphate 3-kinase catalytic subunit alpha isoform (Homo sapiens, UniProt P42336)
# Sequence (P42336 whole entry, canonical isoform): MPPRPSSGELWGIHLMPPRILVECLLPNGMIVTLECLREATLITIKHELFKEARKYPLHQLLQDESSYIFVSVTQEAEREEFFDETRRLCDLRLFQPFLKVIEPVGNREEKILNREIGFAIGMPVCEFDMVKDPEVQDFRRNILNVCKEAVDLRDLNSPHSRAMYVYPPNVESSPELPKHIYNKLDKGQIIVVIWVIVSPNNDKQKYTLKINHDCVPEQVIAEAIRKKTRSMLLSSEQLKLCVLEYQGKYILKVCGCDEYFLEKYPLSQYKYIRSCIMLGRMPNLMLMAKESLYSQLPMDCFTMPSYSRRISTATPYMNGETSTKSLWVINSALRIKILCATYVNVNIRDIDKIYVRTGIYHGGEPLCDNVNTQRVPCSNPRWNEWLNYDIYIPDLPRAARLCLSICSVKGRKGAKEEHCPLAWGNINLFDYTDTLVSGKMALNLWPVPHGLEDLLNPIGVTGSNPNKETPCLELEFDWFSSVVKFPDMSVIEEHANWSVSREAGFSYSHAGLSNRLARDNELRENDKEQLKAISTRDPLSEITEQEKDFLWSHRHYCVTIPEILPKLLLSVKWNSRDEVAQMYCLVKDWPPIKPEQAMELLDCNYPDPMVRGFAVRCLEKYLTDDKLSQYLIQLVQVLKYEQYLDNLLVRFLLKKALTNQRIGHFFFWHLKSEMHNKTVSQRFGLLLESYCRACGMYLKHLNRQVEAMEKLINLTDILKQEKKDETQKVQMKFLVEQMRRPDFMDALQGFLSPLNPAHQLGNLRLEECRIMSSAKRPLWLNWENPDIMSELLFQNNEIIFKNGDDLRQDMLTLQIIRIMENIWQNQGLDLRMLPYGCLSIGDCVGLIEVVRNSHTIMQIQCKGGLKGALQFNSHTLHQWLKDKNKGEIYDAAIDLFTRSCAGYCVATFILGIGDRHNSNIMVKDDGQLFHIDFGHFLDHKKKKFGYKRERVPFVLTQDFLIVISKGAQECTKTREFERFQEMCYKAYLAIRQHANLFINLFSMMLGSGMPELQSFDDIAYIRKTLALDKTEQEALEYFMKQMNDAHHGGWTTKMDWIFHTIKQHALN
# assay_overview: Inhibition of recombinant PI3Kalpha (unknown origin)-mediated 3,4,5-inositoltriphosphate formation after 30 mins by TAMRA-PIP3-based competitive fluorescence polarization assay
pIC50: −log10 of the molar value.
value_kind: pIC50

Worked cases, pIC50 given:
{"columns": ["structure_string", "pIC50"],
 "data": [
  ["CN(C(=O)c1cc2c(s1)-c1ccccc1OCC2)c1ccc(F)cc1F", 7.28],
  ["Fc1ccc(-n2ncnc2-c2cc3c(s2)-c2ccccc2OCC3)c(F)c1", 8.92],
  ["CN(C(=O)c1cc2c(s1)-c1ccc(C(N)=O)cc1OCC2)c1ccccc1Cl", 8.82],
  ["O=c1[nH]nc(-c2cc3c(s2)-c2ccccc2OCC3)n1-c1ccccc1Cl", 8.92],
  ["Clc1ccccc1-c1ocnc1-c1cc2c(s1)-c1ncccc1OCC2", 7.92]
]}

I. CN(C(=O)c1cc2c(s1)-c1ncccc1OCC2)c1ccccc1Cl
II. CN(C)CCn1ncnc1-c1cc2c(s1)-c1ccc(C(N)=O)cc1OCC2
Q: Looking at I and II , which one comes out lower in pIC50 terms? Selection: enter the item's label.
A: II
(II: 6.85, I: 8.15)

###

# assayed_system: Phosphatidylinositol 4,5-bisphosphate 3-kinase catalytic subunit alpha isoform (Homo sapiens, UniProt P42336)
# assay_overview: Inhibition of recombinant PI3Kalpha (unknown origin)-mediated 3,4,5-inositoltriphosphate formation after 30 mins by TAMRA-PIP3-based competitive fluorescence polarization assay
pIC50: −log10 of the molar value.
value_kind: pIC50

{"columns": ["structure_string", "pIC50"],
 "data": [
  ["NC(=O)c1ccc2c(c1)OCCc1cc(-c3ncnn3C3CCC3)sc1-2", 8.10]
]}

a. NC(=O)c1ccc2c(c1)OCCc1cc(-c3ncnn3CCO)sc1-2
b. CN(C(=O)c1cc2c(s1)-c1ccccc1OCC2)C1CCCCC1
c. CC(C)(O)Cn1ncnc1-c1cc2c(s1)-c1ccc(C(N)=O)cc1OCC2
Q: Provide the items ranked by increasing pIC50. API: response body holds the labels in the requested order.
A: b, a, c

P. CC(C)Cn1ncnc1-c1cc2c(s1)-c1ccc(C(N)=O)cc1OCC2
Q. NC(=O)c1ccc2c(c1)OCCc1cc(-c3n[nH]cc3-c3ccccc3Cl)sc1-2
Q: Looking at P and Q , which one comes out lower in pIC50 terms? Selection: enter the item's label.
A: P
